# Tested on: DERL-7 (IL-2 2.5 ng/mL);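 further: normalised to DMSO-only wells as negative and benzethonium chloride as positive control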
# testName: percent inhibition of viability; higher = more inhibition
# recordedConditions: 72 h; 10 nM
The entries below come with measured percent inhibition of viability values attached.
Respond numerically; units are % and should not be typed.

compound: c1ccc([C@H]2CN3CCSC3=N2)cc1 [Levamisole] (max concentration tested 10000 nM)
subjectOfTest: DERL-7 (IL-2 2.5 ng/mL)
recordedEndpoint: percent inhibition of viability
reading: 0.58
--
compound: Cc1c(Cn2c(C)nc3c(C(=O)O)cc(N4CCOCC4)cc32)cccc1C(F)(F)F (max concentration tested 10000 nM)
subjectOfTest: DERL-7 (IL-2 2.5 ng/mL)
recordedEndpoint: percent inhibition of viability
reading: -4.49

Then this compound:
Give the reported percent inhibition of viability for CCC/C=C/C=C/C(=O)O[C@H]1/C(=C/C(=O)OC)C[C@H]2C[C@H]([C@@H](C)O)OC(=O)C[C@H](O)C[C@@H]3C[C@H](OC(C)=O)C(C)(C)[C@](O)(C[C@@H]4C/C(=C/C(=O)OC)C[C@H](/C=C/C(C)(C)[C@]1(O)O2)O4)O3 [Bryostatin 1] (max concentration tested 100 nM) (system: DERL-7 (IL-2 2.5 ng/mL)).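 Further: normalised to DMSO-only wells as negative and benzethonium chloride as positive control.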
20
